System: Fibroblast
Method Description: Multiplex assay against human fibroblast
Assay type: toxicity, cell-based
Condition Set: 48 h, 1 µM, compound concentration 1 uM, replicate 1
Non-standard residues stand in square brackets, D forms with d. Residues, ends and D or L forms follow the SMILES beside them.
Label true (1) when Population Mitotic Cells (%) >= 40%; otherwise false (0).

Compound: Cc1nn(C)c2nc(NNC(=O)Nc3cc(Cl)nc(Cl)c3)cc(C(C)C)c12
Group Label: false (0)

Compound: CN1CCC(C(=O)c2cccc(NC(=O)c3c(F)cc(F)cc3F)n2)CC1
Group Label: false (0)

Compound: Cc1cc(NC(=O)NCCN2CCC(O)(Cc3ccccc3)CC2)c2ccccc2n1 [PALOSURAN]
Group Label: true (1)

Compound: COc1cc(Nc2ncc3c(n2)-c2ccc(Cl)cc2C(c2c(F)cccc2OC)=NC3)ccc1C(=O)O [ALISERTIB]
Group Label: true (1)

Compound: COc1cc(OC2CCN(C(C)=O)CC2)ccc1C(=O)N1CCC(N2C(=O)OCc3ccccc32)CC1
Group Label: true (1)

Compound: Cc1cc(O)c(-c2ccc([C@@H](C)CN(C)C)cc2)c2c1[nH]c(=O)c1sccc12
Group Label: false (0)

Compound: COc1ccc2c(c1OCc1ccccc1)C[C@@H](C(=O)O)N(C(=O)C(c1ccccc1)c1ccccc1)C2 [OLODANRIGAN]
Group Label: true (1)

Compound: CCCCCCNC(=O)Nc1ccc(S(=O)(=O)Nc2ccc(CCNC[C@H](O)COc3ccc(O)cc3)cc2)cc1 [L-755507]
Group Label: false (0)

Compound: Nc1nc(-c2ccco2)c2cnn(Cc3ccccc3F)c2n1
Group Label: true (1)

Compound: O=C(Nc1cc(-c2ccccc2)nn1-c1ccccc1F)c1ccc([N+](=O)[O-])cc1
Group Label: true (1)

Compound: Cc1sc2c(c1C)C(c1ccc(Cl)cc1)=N[C@H](CC(=O)OC(C)(C)C)c1nnc(C)n1-2
Group Label: false (0)

Compound: COc1cc2nc(N3CCN(C(=O)COc4c(OC)cccc4C(C)C)CC3)nc(N)c2cc1OC.Cl.Cl
Group Label: false (0)

Compound: S=C(NCCCc1c[nH]cn1)NCCCN(Cc1ccc(Cl)c(Cl)c1)c1ccc(Br)cn1
Group Label: false (0)

Compound: CN1CCN(c2ccc(Nc3c4ccccc4nc4ccccc34)cc2)CC1.Cl.Cl.O
Group Label: false (0)

Compound: C[C@H](NC(=O)CNC(=O)c1cccc(Cl)c1)c1ccccc1
Group Label: true (1)

Compound: COc1c(Nc2ccc(S(C)(=O)=O)nc2C)ncnc1OC1CCN(C(=O)OC(C)C)CC1 [ADP-597]
Group Label: false (0)

Compound: CCCCC[C@H](O)/C=C/[C@H]1[C@H](O)CC(=O)[C@@H]1CCCCCCC(=O)O [ALPROSTADIL]
Group Label: true (1)

Compound: Nc1nc(CC(=O)Nc2ccc(CCNC[C@H](O)c3ccccc3)cc2)cs1 [MIRABEGRON]
Group Label: false (0)

Compound: CN1CCN2c3ccccc3Cc3ccccc3C2C1.Cl (stereo not given) [MIANSERIN HYDROCHLORIDE]
Group Label: false (0)

Compound: Cn1cc(C(=O)OCC2CCN(CCNS(C)(=O)=O)CC2)c2ccccc21
Group Label: true (1)

Compound: CSc1nc(NC2CCCC2)c([N+](=O)[O-])c(NC2CCCC2)n1 [GS-39783]
Group Label: false (0)

Compound: COc1cc(C(=O)N2CC[C@@H](O)[C@@H](N)C2)cc2nc(-c3cc4ccccc4n3CC3CC3)n(C)c12.Cl
Group Label: false (0)

Compound: O=c1nc2[nH]c3ccccc3nc-2c(=O)[nH]1 [ALLOXAZINE]
Group Label: false (0)

Compound: O=C(O)CCC/C=C\CC1C(O)CC(O)C1/C=C/C(O)COc1cccc(Cl)c1 (stereo not given) [CLOPROSTENOL]
Group Label: false (0)

Compound: O=c1ccc2ccc(OCCCCN3CCN(c4cccc5sccc45)CC3)cc2[nH]1 [BREXPIPRAZOLE]
Group Label: false (0)

Compound: CCC(=O)OCC(=O)[C@@]1(OC(=O)CC)[C@@H](C)C[C@H]2[C@@H]3CCC4=CC(=O)C=C[C@]4(C)[C@@]3(Cl)[C@@H](O)C[C@@]21C [BECLOMETHASONE DIPROPIONATE]
Group Label: true (1)

Compound: Cc1cc(-c2ccc3c(c2)CC[C@H]3N2CC3(CCN(C(=O)Cc4cn5cc(C)sc5n4)CC3)C2)ncn1 [PF-5190457]
Group Label: false (0)

Compound: Cc1c(Cc2ccc3ccccc3n2)c2cc(F)ccc2n1CC(=O)O [TIMAPIPRANT]
Group Label: false (0)

Compound: CC(C)C[C@H](CO)Nc1nc(S[C@@H](C)c2ccccc2)nc2nc(N)sc12 [AZD-8797]
Group Label: true (1)

Compound: Cc1ccc(OCC(O)C(C)NC(C)C)c2c1CCC2.Cl (stereo not given)
Group Label: false (0)

Compound: CC(F)(F)CN1CCOc2c(nn(-c3ccccc3Cl)c2-c2ccc(Cl)cc2)C1=O
Group Label: true (1)

Compound: CC(C)C[C@@H]1NC(=O)[C@@H](C(C)C)NC(=O)[C@@H]2CCCN2C(=O)[C@@H](CC(=O)O)NC(=O)[C@@H](Cc2c[nH]c3ccccc23)NC1=O [BQ-123] (cyclo(L[dW][dD]P[dV]))
Group Label: true (1)

Compound: CCc1nn2c(C)cc(C)nc2c1Cc1ccc(-c2nnc(C3CCNCC3)o2)cc1
Group Label: false (0)
